subject_of_test: EGFR exon 20 ASV Ins V769_D770 (Ba/F3 cells) (Homo sapiens, UniProt P00533, INS769ASV)
Construct: expressed in transfected cells; host or cells: Ba/F3 (murine pro-B cells), retroviral transduction, puromycin selection, IL3-independent pool
Sequence (P00533 with tags, fused parts or gaps INS769ASV): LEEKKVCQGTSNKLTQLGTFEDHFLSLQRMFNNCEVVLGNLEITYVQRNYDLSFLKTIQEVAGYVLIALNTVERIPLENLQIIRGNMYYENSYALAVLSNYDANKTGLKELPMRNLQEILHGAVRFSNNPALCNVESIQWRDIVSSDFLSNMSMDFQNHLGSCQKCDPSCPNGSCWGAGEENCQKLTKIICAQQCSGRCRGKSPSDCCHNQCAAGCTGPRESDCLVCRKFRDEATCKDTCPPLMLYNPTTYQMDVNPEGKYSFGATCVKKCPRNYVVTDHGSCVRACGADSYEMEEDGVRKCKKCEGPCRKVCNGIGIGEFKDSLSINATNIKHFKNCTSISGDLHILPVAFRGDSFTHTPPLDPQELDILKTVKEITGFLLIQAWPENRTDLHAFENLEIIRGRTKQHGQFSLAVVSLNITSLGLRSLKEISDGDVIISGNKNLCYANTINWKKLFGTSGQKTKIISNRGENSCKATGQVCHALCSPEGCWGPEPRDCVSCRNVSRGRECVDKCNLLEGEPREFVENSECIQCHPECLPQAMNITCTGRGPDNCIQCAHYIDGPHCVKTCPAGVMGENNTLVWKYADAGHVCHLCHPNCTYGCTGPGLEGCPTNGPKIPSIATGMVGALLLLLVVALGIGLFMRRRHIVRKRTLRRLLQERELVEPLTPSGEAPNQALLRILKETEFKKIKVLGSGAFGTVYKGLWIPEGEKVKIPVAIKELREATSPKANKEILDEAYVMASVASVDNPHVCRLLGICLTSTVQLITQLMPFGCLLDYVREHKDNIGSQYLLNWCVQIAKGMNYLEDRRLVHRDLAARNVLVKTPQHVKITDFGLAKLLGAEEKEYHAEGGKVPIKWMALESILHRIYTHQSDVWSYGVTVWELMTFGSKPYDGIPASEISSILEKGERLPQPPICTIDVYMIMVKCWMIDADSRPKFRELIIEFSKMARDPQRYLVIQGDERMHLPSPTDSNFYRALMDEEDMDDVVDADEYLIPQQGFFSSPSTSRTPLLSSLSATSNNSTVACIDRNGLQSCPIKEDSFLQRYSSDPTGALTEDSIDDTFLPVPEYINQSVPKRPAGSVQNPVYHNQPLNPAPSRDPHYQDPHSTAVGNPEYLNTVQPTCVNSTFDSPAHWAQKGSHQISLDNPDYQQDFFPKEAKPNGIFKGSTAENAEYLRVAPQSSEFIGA
assay_notes: Inhibitor activity on EGFR-dependent cell growth (CellTiter-Glo, 72 h), Ba/F3 EGFR exon 20 ASV Ins
Format: cell-based
test_settings: read-out: BaF3 ASV IC50
Listed next: entries and their corresponding IC50.

>  <compound>
COc1c(Cl)cccc1Nc1c(-c2ccnc3ccc(OC4(C)CC4)nc23)[nH]c2c1C(=O)NCC2 [Compound 767]

>  <IC50>
< 100 nM

$$$$
>  <compound>
COc1c(Cl)cccc1Nc1c(-c2ccnc(-c3cn(C)nn3)n2)[nH]c2c1C(=O)NCC2 [compound 545]

>  <IC50>
100 to 1000 nM

$$$$
>  <compound>
COc1c(Cl)cccc1Nc1c(-c2ccnc(Nc3cnn(CC(F)F)c3)n2)[nH]c2c1C(=O)NCC2 [compound 514]

>  <IC50>
< 100 nM

$$$$
>  <compound>
C=CC(=O)N1CCC2(CC1)CNC(=O)c1c2[nH]c(-c2ccnc(N)n2)c1Nc1cccc(Cl)c1OC [Compound 556]

>  <IC50>
< 100 nM

$$$$
>  <compound>
COc1ncc2nccc(-c3[nH]c4c(c3Nc3c(F)cccc3F)C(=O)NCC4)c2n1 [Compound 806]

>  <IC50>
> 1000 nM

$$$$
>  <compound>
COc1c(F)cccc1Nc1c(-c2ccncc2F)[nH]c2c1C(=O)NCC2C[C@@H]1COCCO1 (single isomer, unassigned) [Compound 566]

>  <IC50>
< 100 nM

$$$$
>  <compound>
COc1c(Cl)cccc1Nc1c(-c2ccnc(Nc3ccn(CC(F)F)n3)n2)[nH]c2c1C(=O)NCC2 [compound 515]

>  <IC50>
< 100 nM

$$$$
>  <compound>
COCC[C@@H]1CNC(=O)c2c1[nH]c(-c1ccncc1F)c2Nc1cccc(F)c1C [compound 823]

>  <IC50>
< 100 nM

$$$$
>  <compound>
COc1c(Cl)cccc1Nc1c(-c2ccncc2F)[nH]c2c1C(=O)NCC2C[C@@H]1CO[C@@H](CN(C)C)CO1 (single isomer, unassigned) [Compound 563]

>  <IC50>
100 to 1000 nM

$$$$
>  <compound>
COc1c(Cl)cccc1Nc1c(-c2ccncc2F)[nH]c2c1C(=O)NCC21CCOC1 (single isomer, unassigned) [Compound 782]

>  <IC50>
100 to 1000 nM

$$$$
>  <compound>
Nc1nccc(-c2[nH]c3c(c2Nc2cccc(F)c2OC(F)F)C(=O)NCC3)n1 [compound 299]

>  <IC50>
100 to 1000 nM

$$$$
>  <compound>
C=CC(=O)N1CCC2(CC1)CNC(=O)c1c2[nH]c(-c2ccnc(C)n2)c1Nc1cccc(F)c1OC [compound 644]

>  <IC50>
< 100 nM

$$$$
>  <compound>
COc1c(Cl)cccc1Nc1c(-c2ccnc(C)n2)[nH]c2c(C[C@@H]3COCCO3)c[nH]c(=O)c12 [compound 655]

>  <IC50>
< 100 nM

$$$$
>  <compound>
COc1c(Cl)cccc1Nc1c(-c2ccnc3cnc(OCCCN4CCOCC4)nc23)[nH]c2c1C(=O)NCC2 [compound 505]

>  <IC50>
< 100 nM

$$$$
>  <compound>
COc1c(Cl)cccc1Nc1c(-c2nc(N)ncc2C#N)[nH]c2c1C(=O)NCC2 [Compound 693]

>  <IC50>
> 1000 nM

$$$$
>  <compound>
COc1c(Cl)cccc1Nc1c(-c2ccnc3ccc(OCC4(F)CC4)nc23)[nH]c2c1C(=O)NCC2 [compound 759]

>  <IC50>
< 100 nM

$$$$
>  <compound>
C=CC(=O)N1CCC2(CC1)CNC(=O)c1c2[nH]c(-c2ccnc(C)n2)c1Nc1cc(F)cc(Cl)c1OC [compound 642]

>  <IC50>
< 100 nM

$$$$
